test: CCTE_Shafer_MEA_acute_firing_rate_mean: CCTE's Neural Acute Assay for Mean Firing Rate, Shafer Lab (AID 2284009);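 note: analyzed for loss of signal so actives lower firing rate relative to DMSO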
Active and inactive are the calls of the source. Rule for the calls: active = hit-call score of the fitted dose curve at least 0.9, where 1 is the maximum; inactive = score below 0.9.
Respond only with the outcome that fits, drawn from active, inactive

I'd appreciate the recorded outcome for On1ccccc1=S from this test.
inactive

For CC[C@H]1CC[C@H](NCc2cc3c(cc2OC)[C@H]2C[C@H]2C(=O)N3C)[C@H](c2ccccc2)N1 , what call appears in the results of this test?
active

Call for entry Cn1c(=O)c2c(ncn2C)n(C)c1=O :
inactive

---

read-out: Interleukin-1 alpha (IL1a), IL1A (gene 3552); test: BSK_KF3CT_IL1a: BioMAP Diversity Plus: KF3CT Assay for Interleukin-1 alpha (IL1a) Biomarker Activity (AID 2283070); settings: primary human keratinocytes with fibroblasts; actives raise or lower the signal
Active and inactive are the calls of the source. Rule for the calls: active = hit-call score of the fitted dose curve at least 0.9, where 1 is the maximum; inactive = score below 0.9.
// one of 1 (yes) = active, 0 (no) = inactive, no free text

I would be grateful if you could indicate the recorded call for Cn1c(=O)cc(Oc2ccc(F)cc2F)c2cnc(NCC(C)(C)O)nc21 .
0 (no)

Just curious, what result did COc1cccc(-c2ccc(/C=C\CN3CCCCCC3)cc2Cl)c1 get here?
1 (yes)

Outcome? CC(C)CCCCCCOC(=O)c1ccc(C(=O)OCCCCCCC(C)C)c(C(=O)OCCCCCCC(C)C)c1
0 (no)

Please state the recorded outcome for this compound: CC(O)CN(CCN(CC(C)O)CC(C)O)CC(C)O (stereo not drawn)
0 (no)

Hi, do you know how COC(=O)CC(=O)OC came out in this test?
0 (no)

Which outcome did this test record for the compound COC(=O)c1ccccc1O ?
0 (no)

For this compound, state the assay outcome: CCCCC(CC)COC(=O)CCCCCCCCC(=O)OCC(CC)CCCC (stereo not drawn)
0 (no)

How did this test come out for CC(=O)c1ccc2c(c1)[C@H](NC(=O)c1ccc(F)cc1)[C@@H](O)C(C)(C)O2 ?
0 (no)

---

read-out: Vascular endothelial growth factor receptor 2 (Homo sapiens); test: BSK_4H_VEGFRII: BioMAP Diversity Plus: 4H Assay for Vascular endothelial growth factor receptor 2 (VEGFR2) Biomarker Activity (AID 2283031); details: primary human endothelial cells (HUVEC); actives raise or lower the signal
Calls of active or inactive are those of the source. The calls were made as follows: active = hit-call score of the fitted dose curve at least 0.9, where 1 is the maximum; inactive = score below 0.9.
Entry note: the call must match one of active, inactive

Hey, what did the test say about C=CCCCCCCCCC(=O)O ?
inactive

GET /call?item= O=c1[nH]c2ccc(S(=O)CCN3CCC(Cc4ccc(F)cc4)CC3)cc2o1 (configuration not stated) returns the recorded outcome of this test.
inactive

Look up the recorded call for CCOc1cccc(-n2cc(C(=O)N3CCN(c4cc(C(=O)O)c5ccccc5c4)CC3)nc2-c2ccc(C)cc2)c1 in this test.
active

Dear all, I need the recorded test outcome for COc1ccc(/C=C/S(=O)(=O)NC(=O)c2ccc(C)cc2Cl)cc1 , thank you.
inactive

What classification did CCOCCO end up with in this test?
inactive

# outcome recorded in this test, key = O=C(O)CC(O)C(=O)O (configuration not stated)
inactive

Just curious, what result did Fc1ccccc1[C@@H](F)COC1CCC(Nc2ncnc3[nH]ncc23)CC1 (some centres not stated) get here?
inactive

Just curious, what result did CCN(C(=O)c1cc(C)cc(OC[C@H](C)Nc2ccncc2)c1)C(C)C get here?
inactive

How did this test come out for Clc1nc(Cl)c(Cl)c(Cl)c1Cl ?
inactive

What was the test verdict on CCC(C)(C)C(=O)O[C@H]1C[C@@H](C)C=C2C=C[C@H](C)[C@H](CC[C@@H]3C[C@@H](O)CC(=O)O3)[C@H]21 ?
active

Please let me know the test result on file for CC(=O)OCCC(C)C .
inactive

Could you please tell me the result logged for Cc1ccc(C)c(O)c1 in this assay?
inactive
